Below: a set of entries, each annotated with reported viability.
- METHOD DESCRIPTION: growth suppression of beta-catenin knockout HCT116, pilot screen, human colon tumor cells (AID 823);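 also: 0% = wells killed by 20 µM Hyamine and 100% = untreated DMSO cell wells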
- CONDITION CONTEXT: CellTiter-Glo, 60 h, at 10 µM, stronger effect = lower value
Records with an inconclusive call do not appear.
I only need the number, in %, no unit after it.

The cases that follow already have their viability on record.
>  <MOLECULE>
CC(CNC(=O)C1CCCCC1)NC(=O)C1CCCCC1 (stereo unspecified)

>  <viability (%)>
89.6

$$$$
>  <MOLECULE>
CCOC(=O)CC(=O)Nc1ccc(C(=O)OCC)cc1

>  <viability (%)>
101

$$$$
>  <MOLECULE>
O=S(=O)(NCc1csc(-c2ccccc2)n1)c1ccc(Cl)s1

>  <viability (%)>
96.9

$$$$

Item under review: Cn1nc(-c2ccc(Cl)cc2)c2cc(C(=O)NCC3CCCO3)sc21 (stereo unspecified) . Reported viability?
65.9

Same question, CCN1c2ccccc2NC2N=C(OC)C(c3ccccc3)C21 (stereo unspecified) this time
3.31

Same question, Cc1nnc(-c2ccccc2)c[n+]1[O-] this time
101
